Where these numbers come from: paper PMC4552634

system: P. falciparum stage V gametocytes; design: BacTiter-Glo ATP luminescence viability of purified stage V gametocytes in 384-well plates, per cent inhibition versus DMSO; conditions: 48 h, 5 µM; inhibitor
About 3,200 (25%) of roughly 13,000 compounds showed an effect of 50% or more. Some of the results follow.
Give measured % Inhibition for each item. Keep answers brief.
Respond numerically; units are % and should not be typed.

Q. Sample CCOC(=O)c1c(NC(NC(=O)c2ccc(C(C)(C)C)cc2)C(Cl)(Cl)Cl)sc2c1CCCC2 (centres unmarked) — what was its % Inhibition?
A. 17.61

Q. Sample "COc1ccccc1CNc1ccnc(NCCc2cccc(C(F)(F)F)c2)n1" — what was its % Inhibition?
A. 62.08

Q. Sample "O=C(NCc1ccc(Cl)c(Cl)c1)c1ccc(C2CCN(Cc3ccc4nc[nH]c4c3)CC2)cc1" — what was its % Inhibition?
A. -61.63

Q. Sample COc1ccc(Nc2nccc(NCC(O)c3cccc(C(F)(F)F)c3)n2)cc1 (centres unmarked) — what was its % Inhibition?
A. -13.64

Q. Sample "Cc1cc(Nc2cccc(C#N)c2)nc(Nc2ccccc2C)n1" — what was its % Inhibition?
A. -8.734

Q. Sample "CC(=O)Nc1ccc(S(=O)(=O)Nc2c(C)cc(Cc3cnc(N)nc3N)cc2C)cc1" — what was its % Inhibition?
A. -8.406

Q. Sample "CCCOc1ccccc1-c1nc2[nH]c3c(c2c(=O)[nH]1)CCN(C)C3" — what was its % Inhibition?
A. 5.306

Q. Sample "Cn1cncc1CCCN(Cc1ccc(-c2ccc(C(F)(F)F)cc2)cc1)C(=O)Cn1c(CCc2cccc(F)c2F)cc(=O)c2cccnc21" — what was its % Inhibition?
A. -3.632

----------
Give measured % Inhibition for each item. Keep answers brief.
system: P. falciparum stage V gametocytes; parameters: BacTiter-Glo ATP luminescence viability of purified stage V gametocytes in 384-well plates, per cent inhibition versus DMSO; conditions: 48 h, 5 µM; inhibitor
Among all 13,000 compounds or so, about 3,200 (25%) showed an effect of 50% or more. This is one part of the list.
Respond numerically; units are % and should not be typed.

Q. Fill in the recorded % Inhibition for this compound, with P. falciparum stage V gametocytes as test system: "O=C(Cn1c(CCc2cccc(F)c2F)nc(=O)c2ccccc21)N(CCN1CCCCC1)Cc1ccc(-c2ccc(C(F)(F)F)cc2)cc1"
A. 27.65

Q. Fill in the recorded % Inhibition for this compound, with P. falciparum stage V gametocytes as test system: O=c1cc(NCCCNC2CCCc3c2ccc2ccccc32)[nH]c2ccccc12 (stereo not drawn)
A. 0.6782

Q. Fill in the recorded % Inhibition for this compound, with P. falciparum stage V gametocytes as test system: "CCN1CCN(CCCNc2c3ccccc3nc3ccccc23)CC1"
A. 84.24

Q. Fill in the recorded % Inhibition for this compound, with P. falciparum stage V gametocytes as test system: "CC(=O)c1c(Cc2ccccc2Cl)c[nH]c1C"
A. -14.2

Q. Fill in the recorded % Inhibition for this compound, with P. falciparum stage V gametocytes as test system: "Cc1ccc(NCC(=O)Nc2ccc(F)c(Cl)c2)cc1S(=O)(=O)N1CCOCC1"
A. -4.453

Q. Fill in the recorded % Inhibition for this compound, with P. falciparum stage V gametocytes as test system: "Cc1cc(NC(=O)Nc2ccc3nccc(N4CCN(C)CC4)c3c2)ccc1Br"
A. 36.21

Q. Fill in the recorded % Inhibition for this compound, with P. falciparum stage V gametocytes as test system: "COc1cc(Cc2cnc(N)nc2N)cc(OCCCN2C(=O)c3ccccc3C2=O)c1OC"
A. 18.85

Q. Fill in the recorded % Inhibition for this compound, with P. falciparum stage V gametocytes as test system: "O=C(Cn1c(CCc2cccc(F)c2F)nc(=O)c2ccccc21)N(CCN1CCCC1)Cc1ccc(-c2ccc(C(F)(F)F)cc2)cc1"
A. 66.66

Q. Fill in the recorded % Inhibition for this compound, with P. falciparum stage V gametocytes as test system: "CCC[C@@H]([C@@H](CC1CCCCC1)C(=O)N[C@H](C(=O)Nc1nccs1)[C@@H](C)OCc1ccccc1)N(O)C=O"
A. -19.92

Q. Fill in the recorded % Inhibition for this compound, with P. falciparum stage V gametocytes as test system: "Cc1ccc(F)c(OCC2CCN(c3ncc(C(=O)NC4CC4)cc3Cl)CC2)c1"
A. 21.14

Q. Fill in the recorded % Inhibition for this compound, with P. falciparum stage V gametocytes as test system: "FC(F)(F)c1ccc2[nH]c(-c3cccc(-c4cccc(CNCc5cnn(-c6ccccc6)n5)c4)c3)nc2c1.O=C(O)C(F)(F)F"
A. -44.07

Q. Fill in the recorded % Inhibition for this compound, with P. falciparum stage V gametocytes as test system: "CCn1c(-c2ccccc2)cc2nnc3ccccc3c21"
A. 3.318

Q. Fill in the recorded % Inhibition for this compound, with P. falciparum stage V gametocytes as test system: "CC(C)C[C@H](NC(=O)c1ccc(OCCN2CCOCC2)cc1)C(=O)N[C@H](/C=N/NC(=O)OC(C)(C)C)CCc1ccccc1"
A. -97.84

Q. Fill in the recorded % Inhibition for this compound, with P. falciparum stage V gametocytes as test system: "N#Cc1ccc(C=Cc2nccc3c2[nH]c2ccccc23)cc1"
A. -0.1389

Q. Fill in the recorded % Inhibition for this compound, with P. falciparum stage V gametocytes as test system: "O=C(NCc1ccccc1)Nc1cccc(-c2cccc(-c3nc4ccc(C(F)(F)F)cc4[nH]3)c2)c1"
A. -23.46

Q. Fill in the recorded % Inhibition for this compound, with P. falciparum stage V gametocytes as test system: "N#Cc1ccc2[nH]cc(-c3cn4cc(SC5CCCC5)ccc4n3)c2c1"
A. -50.98

Q. Fill in the recorded % Inhibition for this compound, with P. falciparum stage V gametocytes as test system: COc1ccc2c(c1)Sc1ccccc1C(N1CCN(CCO)CC1)C2 (stereo not drawn)
A. -3.41

Q. Fill in the recorded % Inhibition for this compound, with P. falciparum stage V gametocytes as test system: "CC1(C)N=C(N)N=C(N)N1OCc1ccc2c(c1)OCO2"
A. 47.46

Q. Fill in the recorded % Inhibition for this compound, with P. falciparum stage V gametocytes as test system: "COc1ccc(CNc2ccc3nc(N)nc(N)c3c2)cc1"
A. 12.04

Q. Fill in the recorded % Inhibition for this compound, with P. falciparum stage V gametocytes as test system: "CCOC(=O)COc1cccc(CNc2ccc3nc(N)nc(N)c3c2)c1"
A. 100.9

Q. Fill in the recorded % Inhibition for this compound, with P. falciparum stage V gametocytes as test system: "O=C(Cn1c(CCc2cccc(F)c2F)nc(=O)c2ccccc21)N(CCCN1CCCCC1)Cc1ccc(-c2ccc(C(F)(F)F)cc2)cc1"
A. 101.4

Q. Fill in the recorded % Inhibition for this compound, with P. falciparum stage V gametocytes as test system: "COc1ccc(C(=O)COc2cccc(/C=C/C(=O)O)c2)cc1OC"
A. -6.983

Q. Fill in the recorded % Inhibition for this compound, with P. falciparum stage V gametocytes as test system: "O=C(Cn1c(CCc2cccc(F)c2F)nc(=O)c2ccccc21)N(CCCN1CCCC1)Cc1ccc(-c2ccc(C(F)(F)F)cc2)cc1"
A. 113.5

Q. Fill in the recorded % Inhibition for this compound, with P. falciparum stage V gametocytes as test system: "Cc1ccc(Nc2nc(C)cc(N3CCN(c4ccccc4)CC3)n2)cc1"
A. -56.11

Q. Fill in the recorded % Inhibition for this compound, with P. falciparum stage V gametocytes as test system: "N=C(N)c1ccc(-c2cc(-c3cccc(C(=N)N)c3)on2)cc1"
A. 7.482

Q. Fill in the recorded % Inhibition for this compound, with P. falciparum stage V gametocytes as test system: "O=C1CC(C(=O)O)CC(=O)N1"
A. 13.38

Q. Fill in the recorded % Inhibition for this compound, with P. falciparum stage V gametocytes as test system: "O=C(Nc1cc(C(F)(F)F)cc(C(F)(F)F)c1)c1cccc([N+](=O)[O-])c1"
A. -13.95

Q. Fill in the recorded % Inhibition for this compound, with P. falciparum stage V gametocytes as test system: "Cc1ccc(NC(=O)c2ccc3ncccc3c2)cc1OC1CCN(Cc2ccsc2)CC1"
A. 12.12

Q. Fill in the recorded % Inhibition for this compound, with P. falciparum stage V gametocytes as test system: "O=C(Nc1cccc(F)c1)NC1CCN(c2ccnc3cc(Cl)ccc23)CC1"
A. -8.116

Q. Fill in the recorded % Inhibition for this compound, with P. falciparum stage V gametocytes as test system: "CN1CCN(c2ccc(Nc3c4ccccc4nc4ccccc34)cc2)CC1"
A. 39.23

Q. Fill in the recorded % Inhibition for this compound, with P. falciparum stage V gametocytes as test system: Cc1ccc([S+]([O-])Cc2ccc(Cl)cc2)cc1 (stereo not drawn)
A. 8.887

Q. Fill in the recorded % Inhibition for this compound, with P. falciparum stage V gametocytes as test system: "Cc1cc(O)c(C(C)C)cc1C1(c2cc(C(C)C)c(O)cc2C)OC(=O)c2ccccc21"
A. -40.8

Q. Fill in the recorded % Inhibition for this compound, with P. falciparum stage V gametocytes as test system: "Cc1cc(NC(=O)Nc2ccc(I)c(OCCN(C)C)c2)ccc1Br"
A. -4.695
